- ASSAY_PROTOCOL: Aqueous stability of the compound in at 2 uM in 10 mM aqueous ammonium bicarbonate at pH 7.9 assessed as formation of trans-6-(4'-hydroxy-3'-methoxyphenyl)-2,4-dioxo-5-hexenal measured as residual amount of compound by reversed phase liquid chromatography-coupled mass spectrometry
- Assay type: physicochemical
- CONDITION_SUMMARY: buffer, pH 7.9, 2 µM
READOUT_LABEL: Stability

# COMPOUND, RECORDED_MEASUREMENT
rows = [
    ("COc1cc(CCC(=O)CC(=O)CCc2cc(CCC(C)C)c(O)c(OC)c2)cc(CCC(C)C)c1O", "87.4%"),
    ("COc1cc(/C=C/C(=O)CC(=O)/C=C/c2cc(F)c(O)c(OC)c2)cc(F)c1O", "Unstable"),
    ("COc1cc(/C=C/C(=O)CC(=O)/C=C/c2cc(CCC(C)C)c(O)c(OC)c2)cc(CCC(C)C)c1O", "Unstable"),
    ("COc1cc(/C=C/C(=O)CC(=O)c2ccc(O)c(OC)c2)ccc1O", "72%"),
    ("COc1cc(/C=C/C(=O)/C=C/c2cc(F)c(O)c(OC)c2)cc(F)c1O", "Unstable"),
    ("COc1cc(/C=C/C(=O)/C=C/c2cc(CC=C(C)C)c(O)c(OC)c2)cc(CC=C(C)C)c1O", "Unstable"),
    ("COc1cc(CCC(=O)CC(=O)CCc2ccc(O)c(OC)c2)ccc1O [TETRAHYDROCURCUMIN]", "Unstable"),
    ("COc1cc(/C=C/C(=O)CC(=O)/C=C/c2ccc(O)c(OC)c2)ccc1O", "41.6%"),
    ("COc1cc(/C=C/C(=O)/C=C/c2ccc(O)c(OC)c2)ccc1O", "Unstable"),
    ("COc1cc(/C=C/c2cc(/C=C/c3cc(CC=C(C)C)c(O)c(OC)c3)[nH]n2)cc(CC=C(C)C)c1O", "Unstable"),
    ("COc1cc(/C=C/c2cc(/C=C/c3ccc(O)c(OC)c3)[nH]n2)ccc1O", "Unstable"),
    ("COc1cc(/C=C/c2cc(-c3ccc(O)c(OC)c3)[nH]n2)ccc1O", "Unstable"),
    ("COc1cc(/C=C/C(=O)CC(=O)/C=C/c2cc(CC=C(C)C)c(O)c(OC)c2)cc(CC=C(C)C)c1O", "Unstable"),
]

###

- TESTED_SYSTEM: Prostaglandin E synthase (Homo sapiens)
- ASSAY_PROTOCOL: Inhibition of mPGES1-mediated PGE2 formation in LPS-stimulated human monocytes preincubated for 15 mins before arachidonic acid substrate addition measured after 30 mins by UPLC-MS/MS analysis
- Format: cell-based
pIC50: −log10 of the molar value.

# MOLECULE, QUALIFIER, pIC50
rows = [
    ("COc1cc(/C=C/C(=O)CC(=O)/C=C/c2ccc(O)c(OC)c2)ccc1O [CURCUMIN]", "=", 5.92),
    ("COc1cc(/C=C/c2cc(/C=C/c3cc(CC=C(C)C)c(O)c(OC)c3)[nH]n2)cc(CC=C(C)C)c1O", "<", 5.00),
]

###

Activity overview
- TESTED_SYSTEM: Prostaglandin E synthase (Homo sapiens)
- Sequence (whole entry): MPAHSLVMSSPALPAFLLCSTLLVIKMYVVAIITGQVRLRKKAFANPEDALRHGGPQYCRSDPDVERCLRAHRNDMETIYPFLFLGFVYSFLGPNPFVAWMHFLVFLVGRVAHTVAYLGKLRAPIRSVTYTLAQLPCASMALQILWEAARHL
- ASSAY_PROTOCOL: Inhibition of mPGES1-mediated PGE2 production in microsomes of IL-1beta stimulated human A549 cells assessed as residual activity preincubated at 10 uM for 15 mins by RP-HPLC analysis relative to control
- Format: cell-based
READOUT_LABEL: Activity (%)

# MOLECULE, RECORDED_MEASUREMENT
records = [
    ("COc1cc(/C=C/c2cc(/C=C/c3ccc(O)c(OC)c3)[nH]n2)ccc1O [CURCUMIN PYRAZOLE]", 54.8),
    ("COc1cc(/C=C/C(=O)/C=C/c2cc(F)c(O)c(OC)c2)cc(F)c1O", 58.8),
    ("COc1cc(/C=C/C(=O)CC(=O)c2ccc(O)c(OC)c2)ccc1O", 72.6),
    ("COc1cc(/C=C/c2cc(/C=C/c3cc(CC=C(C)C)c(O)c(OC)c3)[nH]n2)cc(CC=C(C)C)c1O", 68),
    ("COc1cc(/C=C/C(=O)CC(=O)/C=C/c2cc(CC=C(C)C)c(O)c(OC)c2)cc(CC=C(C)C)c1O", 59.6),
    ("COc1cc(/C=C/C(=O)CC(=O)/C=C/c2cc(CCC(C)C)c(O)c(OC)c2)cc(CCC(C)C)c1O", 71.7),
    ("COc1cc(/C=C/c2cc(-c3ccc(O)c(OC)c3)[nH]n2)ccc1O", 62.2),
]

###

- TESTED_SYSTEM: Prostaglandin G/H synthase 1 (Ovis aries) (UniProt P05979)
- Sequence (P05979 whole entry): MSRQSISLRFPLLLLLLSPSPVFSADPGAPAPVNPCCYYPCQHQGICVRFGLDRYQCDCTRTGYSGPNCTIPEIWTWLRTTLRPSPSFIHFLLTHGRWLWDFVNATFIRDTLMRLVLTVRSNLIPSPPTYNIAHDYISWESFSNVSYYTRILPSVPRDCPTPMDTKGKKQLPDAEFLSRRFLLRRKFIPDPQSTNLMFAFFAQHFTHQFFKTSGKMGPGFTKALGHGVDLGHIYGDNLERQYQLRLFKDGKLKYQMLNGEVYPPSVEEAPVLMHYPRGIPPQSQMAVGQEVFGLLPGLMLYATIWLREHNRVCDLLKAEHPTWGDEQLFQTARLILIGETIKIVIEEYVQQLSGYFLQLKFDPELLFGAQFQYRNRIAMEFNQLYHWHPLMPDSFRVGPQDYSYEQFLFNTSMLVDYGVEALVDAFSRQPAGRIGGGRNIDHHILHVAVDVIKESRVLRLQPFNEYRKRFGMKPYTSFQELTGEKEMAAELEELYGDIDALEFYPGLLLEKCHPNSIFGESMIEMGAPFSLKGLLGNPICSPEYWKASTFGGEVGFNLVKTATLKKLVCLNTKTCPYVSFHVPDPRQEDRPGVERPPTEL
- ASSAY_PROTOCOL: Inhibition of purified ovine COX-1 assessed as residual activity by measuring formation of 12-HHT from arachidonic acid preincubated at 10 uM for 5 mins before substrate addition measured after 5 mins by HPLC analysis relative to control; values are per cent of control

# CHEMICAL_STRUCTURE, residual activity
records = [
    ("COc1cc(/C=C/C(=O)CC(=O)/C=C/c2cc(CC=C(C)C)c(O)c(OC)c2)cc(CC=C(C)C)c1O", "80.2%"),
    ("COc1cc(CCC(=O)CC(=O)CCc2cc(CCC(C)C)c(O)c(OC)c2)cc(CCC(C)C)c1O", "82.7%"),
    ("COc1ccc2c(c1)c(CC(=O)O)c(C)n2C(=O)c1ccc(Cl)cc1", "25%"),
    ("COc1cc(/C=C/C(=O)/C=C/c2cc(CC=C(C)C)c(O)c(OC)c2)cc(CC=C(C)C)c1O", "78.7%"),
]

###

- TESTED_SYSTEM: Prostaglandin E synthase (Homo sapiens, UniProt O14684)
- Sequence (O14684 whole entry): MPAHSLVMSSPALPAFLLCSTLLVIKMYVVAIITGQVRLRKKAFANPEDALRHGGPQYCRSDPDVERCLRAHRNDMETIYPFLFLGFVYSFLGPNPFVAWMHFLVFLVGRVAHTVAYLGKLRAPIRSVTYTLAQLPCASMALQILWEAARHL
- ASSAY_PROTOCOL: Inhibition of mPGES1-mediated PGE2 production in microsomes of IL-1beta stimulated human A549 cells preincubated for 15 mins by RP-HPLC analysis
- Assay type: cell-based
- CONDITION_SUMMARY: read-out: IC50
pIC50: −log10 of the molar value.
compounds and their reported pIC50
READOUT_LABEL: pIC50

# CHEMICAL_STRUCTURE, RECORDED_MEASUREMENT
data = [
    ("Clc1ccccc1-c1nc2c3ccccc3c3ccccc3c2[nH]1", 7.70),
    ("COc1cc(/C=C/C(=O)/C=C/c2cc(CC=C(C)C)c(O)c(OC)c2)cc(CC=C(C)C)c1O", 5.82),
    ("COc1cc(/C=C/C(=O)CC(=O)/C=C/c2cc(F)c(O)c(OC)c2)cc(F)c1O", 5.06),
    ("COc1cc(/C=C/C(=O)CC(=O)/C=C/c2ccc(O)c(OC)c2)ccc1O", 6.22),
]

###

- TESTED_SYSTEM: Prostaglandin G/H synthase 2 (Homo sapiens)
- Sequence (P35354 whole entry): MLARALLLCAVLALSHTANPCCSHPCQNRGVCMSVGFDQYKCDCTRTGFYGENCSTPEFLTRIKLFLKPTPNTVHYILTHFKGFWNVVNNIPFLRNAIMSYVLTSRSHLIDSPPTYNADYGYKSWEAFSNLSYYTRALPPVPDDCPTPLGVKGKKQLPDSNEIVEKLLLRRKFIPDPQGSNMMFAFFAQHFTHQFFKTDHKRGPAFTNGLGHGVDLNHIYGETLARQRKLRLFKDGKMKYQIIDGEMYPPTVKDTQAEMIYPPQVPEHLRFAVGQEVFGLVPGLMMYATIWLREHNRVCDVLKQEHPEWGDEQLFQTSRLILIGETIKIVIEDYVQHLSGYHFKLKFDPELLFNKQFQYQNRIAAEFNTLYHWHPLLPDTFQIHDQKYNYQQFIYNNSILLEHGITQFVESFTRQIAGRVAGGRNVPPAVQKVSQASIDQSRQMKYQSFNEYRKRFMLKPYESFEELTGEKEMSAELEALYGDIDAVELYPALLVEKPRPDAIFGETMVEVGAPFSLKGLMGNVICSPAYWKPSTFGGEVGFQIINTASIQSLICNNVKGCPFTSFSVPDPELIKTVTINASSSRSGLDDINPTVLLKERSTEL
- ASSAY_PROTOCOL: Inhibition of COX2-mediated PGD2 formation in LPS-stimulated human monocytes preincubated for 15 mins before arachidonic acid substrate addition measured after 30 mins by UPLC-MS/MS analysis
- Assay type: cell-based
pIC50: −log10 of the molar value.

# CHEMICAL_STRUCTURE, pIC50
measured = [
    ("COc1cc(/C=C/c2cc(/C=C/c3cc(CC=C(C)C)c(O)c(OC)c3)[nH]n2)cc(CC=C(C)C)c1O", "< 5.00"),
]
